# CC50 at 72 h per entry
- assay-method-text: Cytotoxicity dose response, U87
- Assay type: cell-based
- details: human, U87 (glial) cells, unit not given in Table S3, drug concentrations in µM, read-out: CC50 U87 cell line
- Experimental: B. mandrillaris trophozoites were seeded at 4,000 amoebae per well into opaque and clear-bottom 96-well plates (Corning). Homogenous populations of B. mandrillaris cysts generated by galactose induction were seeded at 4,000 amoebae per well into opaque 96-well plates. […] Luminescence was measured with a Promega GloMax-Multi+ plate reader 2, 4, and 8 h after CTG addition. […] IC50 values were determined as previously described. […]
Use µM as the unit, but write only the number.

Worked cases, CC50 at 72 h given:
# CC50 at 72 h lookup, item O=[N+]([O-])c1ccc(O)c2ncccc12 [Nitroxoline, 8-hydroxy-5-nitroquinoline] 24.9

So what's the measured CC50 at 72 h for this one? N=C(N)c1ccc(OCCCCCOc2ccc(C(=N)N)cc2)cc1 [Pentamidine isethionate] 20.7

State the recorded CC50 at 72 h for this entry: CCCCCCCCCCCCCCCCOP(=O)([O-])OCC[N+](C)(C)C 34.7

Consider the record given below.
Tell me the measured CC50 at 72 h of CC[C@H]1OC(=O)[C@H](C)[C@@H](O[C@H]2C[C@@](C)(OC)[C@@H](O)[C@H](C)O2)[C@H](C)[C@@H](O[C@@H]2O[C@H](C)C[C@H](N(C)C)[C@H]2O)[C@](C)(O)C[C@@H](C)CN(C)[C@H](C)[C@@H](O)[C@]1(C)O , please. 55
